Readings of FGFR2(h) % activity for the listed sequences
Subject of test: FGFR2(h) (Homo sapiens)
Protocol summary: Kinase Profiling Assay
Assay type: biochemical
Protocol conditions: 100 μM peptide

{"Sequence content": "KAFAKLAARLYRKALARQLGVAA [MMI-0400]", "FGFR2(h) % activity": "18%"}
{"Sequence content": "HRRIKAWLKKIKALARQLGVAA (Mammalian) [MMI-0500]", "FGFR2(h) % activity": "12%"}
{"Sequence content": "FAKLAARLYRKALARQLGVAA [MMI-0300]", "FGFR2(h) % activity": "14%"}
{"Sequence content": "YARAAARQARAKALNRQLGVA (Mammalian) [MMI-0200]", "FGFR2(h) % activity": "73%"}

Where these numbers come from: patent US10562947B2
